Value source: patent US20240018252A1

Molecular target: T1, cyBCMA (cynomolgus, UniProt A0A2K5UD97 1-53)
T1 construct: Soluble analyte in SPR; construct not described; also called cyno BCMA
T1 sequence (A0A2K5UD97 entry or part of it): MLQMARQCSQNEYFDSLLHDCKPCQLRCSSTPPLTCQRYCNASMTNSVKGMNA
Assay: SPR, immobilised IgG, 37° C
Kindly state T½ for each of the entries shown.
Numbers only, in min.

Example results:
binder	assay-metric	numeric-readout
L3.PY/L1.PS/H2.YQ (antibody, V domains shown, IgG in the assay) VH: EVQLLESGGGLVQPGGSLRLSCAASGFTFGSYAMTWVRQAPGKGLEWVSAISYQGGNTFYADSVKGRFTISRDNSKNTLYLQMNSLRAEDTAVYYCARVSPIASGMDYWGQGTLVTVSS VL: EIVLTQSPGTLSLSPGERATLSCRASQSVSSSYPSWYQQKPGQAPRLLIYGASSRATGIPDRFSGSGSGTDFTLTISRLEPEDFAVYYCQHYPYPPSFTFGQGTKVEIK	T½	3.09
L3.PY/H2.LT (antibody, V domains shown, IgG in the assay) VH: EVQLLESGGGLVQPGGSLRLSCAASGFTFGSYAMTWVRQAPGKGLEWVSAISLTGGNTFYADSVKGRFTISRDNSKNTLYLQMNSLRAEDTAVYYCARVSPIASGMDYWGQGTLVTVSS VL: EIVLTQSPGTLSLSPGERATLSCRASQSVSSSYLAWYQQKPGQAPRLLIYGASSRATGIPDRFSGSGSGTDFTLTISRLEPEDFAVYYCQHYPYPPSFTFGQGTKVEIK	T½	1.53

Kindly review the next binder as well.
Reported T½ ( L3.PY/L1.PS/H3.AQ (antibody, V domains shown, IgG in the assay) VH: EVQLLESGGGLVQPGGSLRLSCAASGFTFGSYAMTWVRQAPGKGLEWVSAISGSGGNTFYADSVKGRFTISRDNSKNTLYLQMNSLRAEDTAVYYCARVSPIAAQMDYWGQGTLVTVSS VL: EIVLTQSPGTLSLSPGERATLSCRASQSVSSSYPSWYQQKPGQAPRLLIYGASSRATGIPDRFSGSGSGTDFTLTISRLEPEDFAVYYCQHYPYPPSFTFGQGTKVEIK ) = 2.67
